Where do the numbers come from? From PubChem BioAssay (NCI).

Test: NCI Yeast Anticancer Drug Screen. Data for the mlh1 rad18 strain (AID 175)
Details: S. cerevisiae mlh1 rad18 strain growth inhibition; at 50.0 µM; stronger effect = higher value
The panel holds about 79,000 compounds, 15% with a hit somewhere; the sample as a whole holds those more often.
QUANTITY MEASURED: growth inhibition (%)
Your answer should be a plain number; it is taken to be in %.

Give growth inhibition for the following compound: "C[n+]1ccccc1CCC(=O)Nc1ccccc1"
-17.9

Tell me growth inhibition reported for "C/C(=N\O)C(=O)c1cccc([N+](=O)[O-])c1"
27.1

Tell me its growth inhibition given "O=C(OC(=O)c1cccc(Br)c1)c1cccc(Br)c1" as the entry.
1

Give the value of growth inhibition reported for the following: "Clc1cc(Cl)cc(C=NC23CC4CC(CC(C4)C2)C3)c1"
-11

Retrieve growth inhibition measured for CCCCCC/C=C/CCCCCCCc1cccc(OC)c1 (tested in a mixture with another compound) and print it.
12.1

Using known records, supply growth inhibition for "Clc1ccccc1-c1c2ccccc2cc2ccc3ccccc3c12"
-12.4

State, in one line, measured growth inhibition of "N#CC(C#N)=CN1CCCCC1"
-17.8

Specify reported growth inhibition for the compound shown: "CC1(C)OC[C@@H](N)[C@@H](O)CO1"
1.95

Provide one value: measured growth inhibition of "COC(=O)c1cc(OC)nc(Cl)n1"
1.9

Using known records, supply growth inhibition for [N-]=[N+]=Nc1nc2c(N)ncnc2n1C1OC(CO)C(O)C1O (configuration not stated)
20.9

Retrieve growth inhibition measured for "Cc1cc(Cl)ccc1C(=O)O" and print it.
20.2

Query growth inhibition for "CC/C(Cl)=N\OC(=O)Nc1ccccc1OC(F)(F)F"
-89.6
